assay target: the molecule itself
protocol description: AUC
measured attribute: stoichiometry N
Lab note: jot down the number only; don't add units.

Specify measured stoichiometry N for PrfA Y63W/G145S (natural protein, Listeria monocytogenes) NAQAEEFKKYLETNGIKPKQFHKKELIFNQWDPQEYCIFLYDGITKLTSISENGTIMNLQYWKGAFVIMSGFIDTETSVGYYNLEVISEQATAYVIKINELKELLSKNLTHFFYVFQTLQKQVSYSLAKFNDFSINGKLGSICSQLLILTYVYGKETPDGIKITLDNLTMQELGYSSGIAHSSAVSRIISKLKQEKVIVYKNSCFYVQNLDYLKRYAPKLDEWFYLACPATWGKLN .
2

Specify measured stoichiometry N for PrfA^WT (natural protein, Listeria monocytogenes) NAQAEEFKKYLETNGIKPKQFHKKELIFNQWDPQEYCIFLYDGITKLTSISENGTIMNLQYYKGAFVIMSGFIDTETSVGYYNLEVISEQATAYVIKINELKELLSKNLTHFFYVFQTLQKQVSYSLAKFNDFSINGKLGSICGQLLILTYVYGKETPDGIKITLDNLTMQELGYSSGIAHSSAVSRIISKLKQEKVIVYKNSCFYVQNLDYLKRYAPKLDEWFYLACPATWGKLN .
2

Specify measured stoichiometry N for PrfA^S71L (natural protein, Listeria monocytogenes) NAQAEEFKKYLETNGIKPKQFHKKELIFNQWDPQEYCIFLYDGITKLTSISENGTIMNLQYYKGAFVIMLGFIDTETSVGYYNLEVISEQATAYVIKINELKELLSKNLTHFFYVFQTLQKQVSYSLAKFNDFSINGKLGSICGQLLILTYVYGKETPDGIKITLDNLTMQELGYSSGIAHSSAVSRIISKLKQEKVIVYKNSCFYVQNLDYLKRYAPKLDEWFYLACPATWGKLN .
2

Sourced from paper PMC3443378
